Target entity: TEM-1 beta-lactamase (Escherichia coli) (UniProt Q932Y6)
Sequence (Q932Y6 1-286): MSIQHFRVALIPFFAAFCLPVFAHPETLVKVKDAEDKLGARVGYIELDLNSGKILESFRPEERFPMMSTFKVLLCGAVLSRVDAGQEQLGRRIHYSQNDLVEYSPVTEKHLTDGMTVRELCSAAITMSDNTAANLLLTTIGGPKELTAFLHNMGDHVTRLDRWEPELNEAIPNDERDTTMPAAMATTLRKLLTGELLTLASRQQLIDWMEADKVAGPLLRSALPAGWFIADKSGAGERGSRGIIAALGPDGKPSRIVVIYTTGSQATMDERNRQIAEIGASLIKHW
Procedure text: concentration-dependent inhibition of TEM-1 enzyme – biochemical, epi-absorbance, IC50, counter-screen for dual metallo-beta-lactamase inhibitor project, late-stage follow-up (AID 2767)
Condition set: nitrocefin absorbance
Calls of active or inactive are those of the source. No rule for the calls is given here.
Measured attribute: IC50

Which IC50 is reported for this molecule? COc1cccc[c]1[Hg+]
> 59.6 µM (inactive)

Which IC50 is reported for this molecule? O=C(O)c1ccc[c]([Hg+])c1
> 59.6 µM (inactive)

Which IC50 is reported for this molecule? [Hg+][c]1ccccc1
> 59.6 µM (inactive)

Which IC50 is reported for this molecule? O=C(O)c1cc[c]([Hg][Cl])cc1
> 59.6 µM (inactive)

Which IC50 is reported for this molecule? Cc1cc[c]([Hg+])cc1
> 59.6 µM (inactive)

Which IC50 is reported for this molecule? CC(=O)Nc1cc[c]([Hg+])cc1
> 59.6 µM (inactive)
